In this section, each of the compounds is paired with its reported LD.
- System: Mus musculus
- measurementNotes: Compound dose that causes lethality (acute toxicity) was determined by administering perorally in mice.
- Type: organism-based
- measurementSetup: in vivo, po
Field: numeric (mg/kg). Do not append units.

>>> testresult("CCOc1ccccc1OCC1(OC)CCCNC1 (stereo not given)")
200
>>> testresult("CNCCCN1c2ccccc2CCc2ccccc21")
300
>>> testresult("CCOc1ccccc1OCC1CCCNC1 (stereo not given)")
300

Request: Provide measured LD value, entry: CCOc1ccccc1OCC1(O)CCCNC1 (stereo not given)
Response: 150

Request: Provide measured LD value, entry: CCOc1ccccc1OCC1CNCCO1 (stereo not given)
Response: 600
